Give pIC50 for every item shown.
Target: human P2Y12 receptor (Homo sapiens)
Sequence (Q9H244 whole entry): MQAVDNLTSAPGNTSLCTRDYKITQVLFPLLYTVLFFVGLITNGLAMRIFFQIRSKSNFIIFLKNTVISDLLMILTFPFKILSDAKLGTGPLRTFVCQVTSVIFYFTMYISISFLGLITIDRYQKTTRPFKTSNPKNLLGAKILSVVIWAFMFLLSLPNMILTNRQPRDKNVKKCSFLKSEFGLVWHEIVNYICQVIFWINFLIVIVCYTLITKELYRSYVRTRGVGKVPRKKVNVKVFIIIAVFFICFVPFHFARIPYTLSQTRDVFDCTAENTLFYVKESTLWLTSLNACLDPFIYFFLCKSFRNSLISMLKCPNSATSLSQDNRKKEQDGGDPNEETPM
Assay: Human P2Y12 recombinant cell membrane binding assay with 33P 2MeS-ADP
Conditions: competition against 33P 2MeS-ADP, membranes of CHO cells with recombinant human P2Y12 receptor
Answers are plain numbers, as −log10 of the molar value.

Some compounds with recorded pIC50:
CCOC(=O)C(=O)NCC[C@H](NC(=O)c1cc(OCC(=O)N2CCC[C@H]2C(=O)NC2CCC2)n(-c2ccccc2)n1)C(=O)N1CCN(C(=O)OCC)CC1 | 6.97
CCOC(=O)N1CCN(C(=O)[C@H](CCC(=O)O)NC(=O)c2cc(O[C@H](C)C(=O)N3CCC[C@H]3C(=O)NC3CC3)n(-c3ccccc3)n2)CC1 | 7.03
CCCOC(=O)N1CCN(C(=O)[C@H](CC(F)(F)F)NC(=O)c2cc(OCC(=O)N3CCC[C@H]3C(=O)NC3CCC3)n(-c3ccccc3)n2)CC1 | 6.80
CCOC(=O)N1CCN(C(=O)[C@H](CCC(=O)O)NC(=O)c2cc(OCC(=O)N3CCC[C@H]3C(=O)NCC3CCC3)n(-c3ccccc3)n2)CC1 | 7.30
CCOC(=O)N1CCN(C(=O)[C@H](CCC(=O)O)NC(=O)c2cc(OCC(=O)N3CCC[C@H]3C(=O)N3CCCCC3)n(-c3ccccc3)n2)CC1 | 6.84

Now for the compound whose pIC50 we want.
Query pIC50 on human P2Y12 receptor (Homo sapiens) for CCCCOC(=O)N1CCN(C(=O)[C@H](CCCOC(C)=O)NC(=O)c2cc(OCC(=O)N3CCC[C@H]3C(=O)NC3CCC3)n(-c3ccccc3)n2)CC1
7.70
